System: Influenza A virus
Protocol Text: Antiviral activity against Influenza A virus A/WSN/33(H1N1) expressing M2 proton channel S31N mutant infected in MDCK cells assessed as plaque formation at 1 uM preincubated for 30 mins followed by infection measured on day 2 post infection by naphthalene black dye-based assay relative to control
Type: functional, A/WSN/1933(H1N1)
Criterion: Activity strictly less than 40%. Met: T. Not met: F.

Worked examples, 4 compounds total:
# Compound, Group Label
data = [
    ("O=C1C2CC3CC1CC(NCc1cc(-c4cccs4)on1)(C3)C2", "T"),
    ("c1c(CNC23CC4CC(CC(C4)C2)C3)noc1C1CCC1", "F"),
    ("c1ccc(-c2cc(CNC34CC5CC(CC(C5)C3)C4)no2)cc1", "T"),
    ("c1csc(-c2cc(CNC34CC5CC(C3)C3(CO3)C(C5)C4)no2)c1 (configuration not stated)", "F"),
]

Note: attention shifts to another entry.
Request: Say whether its Activity is strictly beneath 40%. Entry: `COc1ccc(-c2nc(CNC34CC5CC(CC(C5)C3)C4)no2)cc1`
Result: F
